Reference source: patent US12630492B2

The following compounds are shown together with reported pIC50 values.
# target-entity: human CB1 receptor (Homo sapiens)
# Construct: host or cells: CHO-K1 (Chinese hamster ovary) cells, stably transfected; membranes prepared in house
# Sequence (P21554 whole entry): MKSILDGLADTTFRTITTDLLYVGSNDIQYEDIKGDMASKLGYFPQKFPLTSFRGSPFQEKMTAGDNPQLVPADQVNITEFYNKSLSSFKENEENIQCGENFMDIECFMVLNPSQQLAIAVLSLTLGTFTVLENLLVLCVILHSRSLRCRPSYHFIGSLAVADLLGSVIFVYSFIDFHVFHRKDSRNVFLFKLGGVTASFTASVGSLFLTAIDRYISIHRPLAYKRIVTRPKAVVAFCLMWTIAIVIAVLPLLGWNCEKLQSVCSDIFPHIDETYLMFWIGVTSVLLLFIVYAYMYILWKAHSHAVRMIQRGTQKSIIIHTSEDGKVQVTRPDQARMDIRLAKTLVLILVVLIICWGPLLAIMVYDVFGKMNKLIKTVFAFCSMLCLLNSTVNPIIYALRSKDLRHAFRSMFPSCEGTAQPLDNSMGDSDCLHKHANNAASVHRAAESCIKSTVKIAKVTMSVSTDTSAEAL
# measurement-protocol: CB1 radioligand competitive binding assay ([3H]CP 55,940 displacement)
# experimental-setup: [3H]CP 55,940 displacement, membranes of CHO-K1 cells expressing human CB1 receptor; read-out: CB1 IC50
pIC50: −log10 of the molar value.

Solved entries:
# compound, value-observed
records = [
    ("CCCCCc1cc(O)c(C2C=C(C)CCC2)c(OCN(C(=O)OC)c2ccccc2)c1 (stereo not shown) [Compound 14c]", "5.00 to 6.00"),
    ("C=C(C)C1CCC(C)=CC1c1c(OCOC2CCCCC2)cc(CCCCC)cc1OCOC1CCCCC1 (stereo not shown) [18′d]", "< 5.00"),
    ("CCCCCc1cc(O)c(-c2cccc(C)c2)c(OCN(C(=O)OC)c2ccccc2)c1 [Compound 14a]", "5.00 to 6.00"),
]

-- ask Query for human CB1 receptor (Homo sapiens): what pIC50 does the record show for C=C(C)C1CCC(C)=CC1c1c(O)cc(C(C)(C)CCCCCC)cc1OCN(C(=O)OC)c1ccccc1 (stereo not shown) [Compound 20d] ?
-- reply 5.00 to 6.00

----------
# target-entity: human CB1 receptor (Homo sapiens)
# Construct: host or cells: CHO-K1 (Chinese hamster ovary) cells, stably transfected; membranes prepared in house
# measurement-protocol: CB1 radioligand competitive binding assay ([3H]CP 55,940 displacement)
# experimental-setup: [3H]CP 55,940 displacement, membranes of CHO-K1 cells expressing human CB1 receptor; read-out: CB1 IC50
The following compounds are shown together with reported IC50 values.

Solved entries:
# compound, target-entity, test-readout, value-observed
measured = [
    ("CCCCCc1cc(O)c(C2C=C(C)CCC2)c(OCOCC)c1 (stereo not drawn) [Compound 17c]", "human CB1 receptor (Homo sapiens)", "IC50", "1000 to 9990 nM"),
    ("CCCCCc1cc(O)c(-c2cccc(C)c2)c(OCOCC)c1 [Compound 17a]", "human CB1 receptor (Homo sapiens)", "IC50", "1000 to 9990 nM"),
    ("CCCCCc1cc(O)c(-c2cccc(C)c2)c(OCOCCOC)c1 [Compound 2a]", "human CB1 receptor (Homo sapiens)", "IC50", "1000 to 9990 nM"),
    ("CCCCCc1cc(OCOCC)c(-c2cccc(C)c2)c(OCOCC)c1 [17′a]", "human CB1 receptor (Homo sapiens)", "IC50", "1000 to 9990 nM"),
]

-- ask Report IC50 for C=C(C)C1CCC(C)=CC1c1c(OCN(C(=O)OC)c2ccccc2)cc(C(C)(C)CCCCCC)cc1OCN(C(=O)OC)c1ccccc1 (stereo not drawn) [20′d] please.
-- reply > 10000 nM

-- ask Please give the result for CCCCCc1cc(O)c(C2C=C(C)CCC2)c(OCOCCOC)c1 (stereo not drawn) [Compound 2c] too.
-- reply 1000 to 9990 nM

-- ask Please give the result for CCCCCc1cc(O)c(C2C=C(C)CCC2)c(OCOC(=O)OCC)c1 (stereo not drawn) [Compound 5c] too.
-- reply 1000 to 9990 nM

-- ask Please give the result for C=C(C)C1CCC(C)=CC1c1c(O)cc(CCCCC)cc1OCOC1CCCCC1 (stereo not drawn) [Compound 18d] too.
-- reply 1000 to 9990 nM

-- ask Please give the result for CCCCCc1cc(OCOC(=O)C(C)(C)C)c(C2C=C(C)CCC2)c(OCOC(=O)C(C)(C)C)c1 (stereo not drawn) [8′c] too.
-- reply 50 to 990 nM
